# SYSTEM TESTED: HLA-DR1 (HLA-DRα*0101 and HLA-DRβ1*0101)
# TEST METHOD NOTES: in vitro competition assay (HLA-DR1 peptide binding)
# MEASUREMENT CONDITIONS: chain shown with the change
MEASURE NAME: IC50 (nM)

1. FARRPPLAELAAANLSGSRL [5T4_(111–130) 20-mer peptide L7A]
2. FARRPPLAELAALALSGSRL [5T4_(111–130) 20-mer peptide N8A]
3. FARRPPLAELAALNLSRSRL [5T4_(111–130) 20-mer peptide G11R]
Req: Arrange items by their IC50 values in increasing order. Return the labels ranked in the requested order, please.
Resp: 2, 3, 1
(2: 144 nM, 3: 255 nM, 1: 725 nM)
